Below, each entry is listed with its recorded growth inhibition.
- measurement_notes: NCI Yeast Anticancer Drug Screen. Data for the mec2-1 strain (AID 157)
- condition_parameters: S. cerevisiae mec2-1 strain, at 50.0 µM, stronger effect = higher value
This is part of a sample that, as a whole, favours compounds with a hit. Of some 79,000 tested, about 15% had one in any assay.

# molecule, growth inhibition / %
data = [
    ("CC1(C)OC(=O)C=C([O-])O1.CC1(C)OC(=O)C=C([O-])O1.O=c1c(O)c(-c2ccc([O-])cc2[O-])oc2cc(O)cc(O)c12.[Ti+4]", 9.05),
    ("CCOC(=O)/C(O)=C\\c1cc(Br)c(OC)cc1[N+](=O)[O-]", 49.7),
    ("C=CC12CCC(CC1)n1c(=O)n(C)c(=O)n12", -11.7),
    ("O=C(O)Cc1ccccc1Cl", 32.1),
    ("CC(=O)OCC1OC(n2c(Br)nc3c2c(=O)n(C)c(=O)n3C)C(OC(C)=O)C1OC(C)=O (configuration not stated)", -1.3),
    ("CC(=O)[C@H]1CC[C@H]2[C@@H]3CC=C4C=CCC[C@]4(C)[C@H]3CC[C@]12C", 1),
    ("C=C1OC(=O)C(N)=C1C(C)=O", 23.7),
    ("CC(=O)OCCOCNC(=S)N/N=C(\\C)c1cccs1", -13.6),
    ("Nc1nc(N)c(N=Nc2cc(Cl)c([N+](=O)[O-])cc2Cl)c(=O)[nH]1", -3.75),
    ("COc1ccccc1NC(=O)C(=O)C(c1cnc2ccc([N+](=O)[O-])cc2n1)[N+](=O)[O-] (configuration not stated)", -3.4),
    ("NC1CCCCC1NCCNC1CCCCC1N (configuration not stated)", 9.35),
    ("Cc1ccc(S(=O)(=O)N(CC(O)c2ccccc2)CC(O)c2ccccc2)cc1 (configuration not stated)", -1.7),
    ("CCOC(=O)c1ccc(NC(=O)Oc2ccc(C=O)cc2OC)cc1", 5.3),
    ("CCN(CC)C(=O)c1ccc(C)c(N=NN(C)C)c1", -36.2),
    ("c1ccc(-c2nc3ccccc3nc2-c2ccc(-c3ccc(-c4nc5ccccc5nc4-c4ccccc4)cc3)cc2)cc1", 5.8),
    ("COc1ccccc1N=Nc1c(C)nc(N)nc1-c1ccccc1", 10.4),
    ("Cc1cccnc1C(=O)O.[Cu+2]", -0.45),
    ("O=C(NC(Cc1ccc(O)cc1)C(=O)O)C(=O)c1c[nH]c2ccc([N+](=O)[O-])cc12 (configuration not stated)", 1.45),
    ("NC(Cc1cccs1)C(=O)O (configuration not stated)", -21.9),
    ("c1ccc2c(c1)NC(C1OC3CCCN3C1C1Nc3ccccc3S1)S2 (configuration not stated)", -6),
    ("CNCC(=O)NC(CO)C(=O)NC(CO)C(=O)NC1C(C(N)=O)OC(n2ccc(N)nc2=O)C(O)C1O (configuration not stated)", 10.3),
    ("CN(C)c1ccc(-c2c3ccc(Cl)cc3nc3ccc(Br)cc23)cc1", -1.9),
]
